- tgt: FLT3 (Homo sapiens)
- Construct: purchased Reaction Biology Corporation
- assay details: HotSpot kinase assay, FLT3
- Type: biochemical
- measurement conditions: HotSpot radiometric 33P ATP assay, 25° C., 120 min
readout type: IC50

Requested field: IC50. Item: NC1CCN(c2cncnc2-c2cnn(-c3ccccc3F)c2)CC1 [Compound I-10]
200 to 1000 nM

Endpoint output: IC50 of N[C@H]1CC[C@@H](COc2cncnc2-c2cnn(-c3cc(F)cc(F)c3)c2)CC1 [Compound I-20] . Value?
200 to 1000 nM

Dear colleague, I am looking for the recorded IC50 of the following compound: N[C@H]1CC[C@@H](COc2cncnc2-c2cnn(-c3ccccc3OC(F)(F)F)c2)CC1 [Compound I-3]
200 to 1000 nM

Requested read-out: IC50. Entry: CN(C)C[C@@H]1CC[C@H](COc2cncnc2-c2cnn(-c3ccccc3F)c2)C1 [Compound I-8]
< 200 nM

Entry N[C@H]1CC[C@@H](CNc2cncnc2-c2cnn(-c3ccccc3F)c2)CC1 [Compound I-11] has what IC50?
200 to 1000 nM

// IC50 lookup, key: CN1CCN(c2ccc(-n3cc(-c4ncncc4OC[C@H]4CC[C@@H](N)CC4)cn3)cc2)CC1 [Compound I-32]
< 200 nM

# get_value(readout='IC50', item= N[C@@H]1CC[C@H](COc2cncnc2-c2cnn(-c3ccccc3F)c2)C1 [Compound I-6] )
200 to 1000 nM

Need IC50 of N[C@H]1CC[C@H](COc2cncnc2-c2cnn(-c3ccccc3F)c2)CC1 [Compound I-26] , thanks.
< 200 nM

Any idea what IC50 was measured for N[C@H]1CC[C@@H](COc2cncnc2-c2cnn(-c3ccccc3F)c2)CC1 [Compound I-25] ?
< 200 nM

# lookup: IC50 of CC(Oc1cncnc1-c1cnn(-c2ccccc2F)c1)[C@H]1CC[C@@H](N)CC1 (stereo partly shown) [Compound I-17]
200 to 1000 nM

====

- tgt: MELK (Homo sapiens, UniProt Q14680)
- Construct: purchased Reaction Biology Corporation
- Sequence (Q14680 whole entry): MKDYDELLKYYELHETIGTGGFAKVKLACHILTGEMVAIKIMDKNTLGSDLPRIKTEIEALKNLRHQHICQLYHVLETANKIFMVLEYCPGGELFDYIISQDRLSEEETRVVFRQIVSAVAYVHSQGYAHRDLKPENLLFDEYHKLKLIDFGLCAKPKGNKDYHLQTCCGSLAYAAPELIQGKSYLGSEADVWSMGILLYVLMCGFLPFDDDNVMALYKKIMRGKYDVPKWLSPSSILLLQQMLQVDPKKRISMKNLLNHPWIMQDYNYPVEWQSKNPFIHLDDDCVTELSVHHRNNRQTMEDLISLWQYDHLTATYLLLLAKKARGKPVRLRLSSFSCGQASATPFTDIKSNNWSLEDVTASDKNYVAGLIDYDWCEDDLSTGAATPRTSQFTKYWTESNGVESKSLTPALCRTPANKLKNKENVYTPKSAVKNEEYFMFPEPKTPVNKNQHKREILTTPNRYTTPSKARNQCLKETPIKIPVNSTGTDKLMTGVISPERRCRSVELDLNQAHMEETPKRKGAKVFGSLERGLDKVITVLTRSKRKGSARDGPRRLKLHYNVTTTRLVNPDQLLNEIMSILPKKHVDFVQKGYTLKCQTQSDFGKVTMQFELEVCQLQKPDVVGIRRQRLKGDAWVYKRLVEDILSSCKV
- assay details: HotSpot kinase assay, MELK
- Format: biochemical
- measurement conditions: HotSpot radiometric 33P ATP assay, 25° C., 120 min
- Procedure: In vitro profiling of the MELK, MELK (T460M) kinase panel was performed at Reaction Biology Corporation using the “HotSpot” assay platform. In vitro profiling of the FLT3, FLT3 mutant forms; FLT3 (D835Y), FLT3 (F594R595insR), FLT3 (F594R595insREY), FLT3 (ITD), FLT3 (ITD)-NPOS, FLT3 (ITD)-W51 and FLT3 (R595_E596insEY) kinase panel is performed in the same manner. […]
// reported IC50 for each item listed

Below: 5 molecules and their reported IC50.
Fc1cccc(F)c1-n1cc(-c2ncnc(Cl)c2OCC2CCNCC2)cn1: > 1000 nM
COc1ccc(-n2cc(-c3ncncc3OC[C@H]3CC[C@@H](N)CC3)cn2)cc1F: < 200 nM
N[C@H]1CC[C@H](COc2cncnc2-c2cnn(-c3ccccc3F)c2)CC1: < 200 nM
CC(C)N[C@H]1CC[C@@H](COc2cncnc2-c2cnn(-c3ccccc3F)c2)CC1: 200 to 1000 nM
Fc1ccccc1-n1cc(-c2ncncc2OCC2CCNCC2)cn1: < 200 nM

Recorded IC50 for "N[C@H]1CC[C@@H](COc2cncnc2-c2cnn(-c3ccccc3F)c2)CC1" , please?
< 200 nM

Entry "Cc1cccc(F)c1-n1cc(-c2ncncc2OC[C@H]2CC[C@@H](N)CC2)cn1" has what IC50?
> 1000 nM

For "N[C@H]1CC[C@@H](CNc2cncnc2-c2cnn(-c3c(F)cccc3F)c2)CC1" , what is its reported IC50?
> 1000 nM

Suppose we examine the molecule "CN(C)[C@@H]1CC[C@H](COc2cncnc2-c2cnn(-c3ccccc3F)c2)C1" ; what IC50 value has been reported?
200 to 1000 nM

====

- tgt: MELK (Homo sapiens)
- Construct: purchased Reaction Biology Corporation
- assay details: HotSpot kinase assay, MELK
- Format: biochemical
- measurement conditions: HotSpot radiometric 33P ATP assay, 25° C., 120 min
- Experimental: In vitro profiling of the MELK, MELK (T460M) kinase panel was performed at Reaction Biology Corporation using the “HotSpot” assay platform. In vitro profiling of the FLT3, FLT3 mutant forms; FLT3 (D835Y), FLT3 (F594R595insR), FLT3 (F594R595insREY), FLT3 (ITD), FLT3 (ITD)-NPOS, FLT3 (ITD)-W51 and FLT3 (R595_E596insEY) kinase panel is performed in the same manner. […]
Listed below: IC50 values for each entry.

A selection of reference data follows.
N[C@H]1CC[C@@H](COc2cncnc2-c2cnn(-c3cc(F)cc(F)c3)c2)CC1 [Compound I-20]: > 1000 nM
N[C@@H]1CC[C@H](COc2cncnc2-c2cnn(-c3ccccc3F)c2)C1 [Compound I-6]: 200 to 1000 nM
N[C@H]1CC[C@@H](CNc2cncnc2-c2cnn(-c3ccccc3F)c2)CC1 [Compound I-11]: > 1000 nM

Which value of IC50 has been reported for N[C@H]1CC[C@@H](COc2cncnc2-c2cnn(-c3ccc(O)c(F)c3)c2)CC1 [Compound I-21] in the records?
< 200 nM

Fill in: IC50 of N[C@@H]1CC[C@@H]1COc1cncnc1-c1cnn(-c2ccccc2F)c1 [Compound I-13] is ___
> 1000 nM

====

Documented IC50 across a set of molecules
- tgt: FLT3 (Homo sapiens, UniProt P36888)
- Construct: purchased Reaction Biology Corporation
- Sequence (P36888 27-993): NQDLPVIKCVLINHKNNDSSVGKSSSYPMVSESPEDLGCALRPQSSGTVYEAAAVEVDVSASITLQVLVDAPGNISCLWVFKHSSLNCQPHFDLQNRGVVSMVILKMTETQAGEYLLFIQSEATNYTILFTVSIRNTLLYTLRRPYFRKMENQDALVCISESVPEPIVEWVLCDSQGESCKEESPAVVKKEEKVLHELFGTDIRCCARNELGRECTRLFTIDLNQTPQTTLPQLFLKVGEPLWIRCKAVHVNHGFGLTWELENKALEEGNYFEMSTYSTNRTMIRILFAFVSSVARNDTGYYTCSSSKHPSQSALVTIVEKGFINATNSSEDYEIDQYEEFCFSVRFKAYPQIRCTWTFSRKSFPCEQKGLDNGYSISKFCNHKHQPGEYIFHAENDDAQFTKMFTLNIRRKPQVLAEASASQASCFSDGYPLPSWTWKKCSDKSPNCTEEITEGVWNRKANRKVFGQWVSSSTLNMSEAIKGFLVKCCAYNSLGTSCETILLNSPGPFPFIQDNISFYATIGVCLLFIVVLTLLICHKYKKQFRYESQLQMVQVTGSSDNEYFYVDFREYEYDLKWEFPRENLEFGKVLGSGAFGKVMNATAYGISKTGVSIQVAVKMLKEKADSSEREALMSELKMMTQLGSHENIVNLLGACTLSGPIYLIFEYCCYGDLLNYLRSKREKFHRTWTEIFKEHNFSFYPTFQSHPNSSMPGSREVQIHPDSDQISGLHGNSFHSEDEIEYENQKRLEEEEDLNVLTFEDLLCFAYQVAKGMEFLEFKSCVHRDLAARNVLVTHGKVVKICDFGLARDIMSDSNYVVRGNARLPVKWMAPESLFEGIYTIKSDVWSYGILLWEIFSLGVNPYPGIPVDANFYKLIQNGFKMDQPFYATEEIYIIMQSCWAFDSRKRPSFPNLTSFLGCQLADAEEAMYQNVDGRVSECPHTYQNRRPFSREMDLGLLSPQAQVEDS
- assay details: HotSpot kinase assay, FLT3
- Type: biochemical
- measurement conditions: HotSpot radiometric 33P ATP assay, 25° C., 120 min
- Protocol: In vitro profiling of the MELK, MELK (T460M) kinase panel was performed at Reaction Biology Corporation using the “HotSpot” assay platform. In vitro profiling of the FLT3, FLT3 mutant forms; FLT3 (D835Y), FLT3 (F594R595insR), FLT3 (F594R595insREY), FLT3 (ITD), FLT3 (ITD)-NPOS, FLT3 (ITD)-W51 and FLT3 (R595_E596insEY) kinase panel is performed in the same manner. […]

COc1ccccc1-n1cc(-c2ncncc2OC[C@H]2CC[C@@H](N)CC2)cn1: < 200 nM
N[C@H]1CC[C@@H](COc2cncnc2-c2cnn(-c3c(F)cccc3F)c2)CC1: < 200 nM
CCS(=O)(=O)c1ccc(-n2cc(-c3ncncc3OC[C@H]3CC[C@@H](N)CC3)cn2)c(F)c1: 200 to 1000 nM
CC(C)N1CCC(COc2cncnc2-c2cnn(-c3ccccc3F)c2)CC1: > 1000 nM
CN(C)[C@H]1CC[C@@H](COc2cncnc2-c2cnn(-c3ccccc3F)c2)CC1: < 200 nM
N[C@H]1CC[C@@H](CNc2cncnc2-c2cnn(-c3c(F)cccc3F)c2)CC1: 200 to 1000 nM
Fc1ccccc1-n1cc(-c2ncncc2OCC2CCNCC2)cn1: < 200 nM

Would you kindly look at the next entry?
Entry under review: "N#Cc1ccccc1-n1cc(-c2ncncc2OC[C@H]2CC[C@@H](N)CC2)cn1" . Reported IC50?
< 200 nM

====

- tgt: FLT3 (Homo sapiens, UniProt P36888)
- Construct: purchased Reaction Biology Corporation
- assay details: HotSpot kinase assay, FLT3
- Type: biochemical
- measurement conditions: HotSpot radiometric 33P ATP assay, 25° C., 120 min
Reported values of IC50 for individual entries

Below: 4 compounds and their reported IC50.
N[C@@H]1CC[C@@H]1COc1cncnc1-c1cnn(-c2ccccc2F)c1 [Compound I-13]: > 1000 nM
Cc1cccc(F)c1-n1cc(-c2ncncc2OC[C@H]2CC[C@@H](N)CC2)cn1 [Compound I-14]: 200 to 1000 nM
Fc1ccccc1-n1cc(-c2ncnc(Cl)c2OCC2CCNCC2)cn1 [Compound I-27]: < 200 nM
N[C@H]1CC[C@@H](COc2cncnc2-c2cnn(-c3ccc(N4CCOCC4)cc3)c2)CC1 [Compound I-33]: < 200 nM

# next compound below
Query IC50 on FLT3 (Homo sapiens, UniProt P36888) for Cc1cccc(F)c1-n1cc(-c2ncncc2OC[C@H]2CCC[C@@H](N)C2)cn1 [Compound I-18]
200 to 1000 nM

====

- tgt: FLT3 (Homo sapiens)
- Construct: purchased Reaction Biology Corporation
- assay details: HotSpot kinase assay, FLT3
- Assay type: biochemical
- measurement conditions: HotSpot radiometric 33P ATP assay, 25° C., 120 min
readout type: IC50

Reference set (5 entries):
COc1ccc(-n2cc(-c3ncncc3OC[C@H]3CC[C@@H](N)CC3)cn2)cc1F: < 200 nM
Fc1cccc(F)c1-n1cc(-c2ncnc(Cl)c2OCC2CCNCC2)cn1: 200 to 1000 nM
c1ccc(-n2cc(-c3ncncc3OCC3CCNCC3)cn2)cc1: 200 to 1000 nM
N[C@H]1CC[C@@H](COc2cncnc2-c2cnn(-c3ccc(O)c(F)c3)c2)CC1: < 200 nM
N[C@H]1CC[C@@H](CCOc2cncnc2-c2cnn(-c3ccccc3F)c2)CC1: < 200 nM

So what's the measured IC50 for this one? OC1CCC(COc2cncnc2-c2cnn(-c3ccccc3F)c2)CC1 (stereo not drawn)
200 to 1000 nM

State the recorded IC50 for this entry: "Fc1cccc(F)c1-n1cc(-c2ncncc2OCC2CCNCC2)cn1"
200 to 1000 nM

What value of measured IC50 is listed for "Fc1ccccc1-n1cc(-c2ncncc2NCC2CCNCC2)cn1" ?
> 1000 nM

Using the record for "CCS(=O)(=O)c1ccc(-n2cc(-c3ncncc3OC[C@H]3CC[C@@H](N)CC3)cn2)cc1" , report its IC50.
< 200 nM
